Origin of measurements: ChEMBL document CHEMBL1135690

assayedSystem: GABA-A receptor; anion channel (Homo sapiens) (UniProt P14867+P47870+P18507+P28472+P48169+Q99928+Q9UN88+P34903+O00591+O14764+Q8N1C3+P18505+P78334+P47869+P31644+Q16445)
experimentSummary: Percent inhibition [3H]Ro-151788 binding to Benzodiazepine receptor from bovine brain membrane at 10 uM
experimentalContext: Bos taurus, target entry is the homologue from another species
inhibition of 90% or higher: rule met. Under 90%: rule not met.

>  <molecule>
COc1ccccc1COC(=O)C1C=NN2c3cc(Cl)ccc3[N+]([O-])=NC12 (stereo not given)

>  <label>
rule met

$$$$
>  <molecule>
O=C(OCc1ccncc1)c1cnn2c1n[n+]([O-])c1ccc(Cl)cc12

>  <label>
rule met

$$$$
>  <molecule>
CC(C)OC(=O)c1cnn2c1n[n+]([O-])c1ccc(Cl)cc12

>  <label>
rule met

$$$$
>  <molecule>
O=C(OCc1cccs1)c1cnn2c1nnc1ccc(Cl)cc12

>  <label>
rule met

$$$$
>  <molecule>
O=C(Cc1cnn2c1n[n+]([O-])c1ccc(Cl)cc12)Oc1ccccc1

>  <label>
rule not met

$$$$
>  <molecule>
COc1ccccc1COC(=O)Cc1cnn2c1n[n+]([O-])c1ccc(Cl)cc12

>  <label>
rule not met

$$$$
>  <molecule>
O=C(Cc1cnn2c1n[n+]([O-])c1ccc(Cl)cc12)OCc1cccs1

>  <label>
rule not met

$$$$
>  <molecule>
O=C(CC1C=NN2c3cc(Cl)ccc3[N+]([O-])=NC12)Oc1ccccc1Cl (stereo not given)

>  <label>
rule not met

$$$$
>  <molecule>
Cc1ccccc1OC(=O)CC1C=NN2c3cc(Cl)ccc3[N+]([O-])=NC12 (stereo not given)

>  <label>
rule not met

$$$$
>  <molecule>
O=C(OCc1ccoc1)c1cnn2c1n[n+]([O-])c1ccc(Cl)cc12

>  <label>
rule met

$$$$
